system: AM-38 (Glioblastoma); assay: combination Emax (second highest fraction inhibited in the dose matrix, 72 h); higher = more inhibition; extreme values may be limits of the assay
Measurement Name: combination Emax

- CN(CCO)CC[C@H](CSc1ccccc1)Nc1ccc(S(=O)(=O)NC(=O)c2ccc(N3CCC([C@@H](O)c4ccccc4-c4ccc(Cl)cc4)CC3)cc2)cc1S(=O)(=O)C(F)(F)F [AZD4320] + Cn1cnc2c(F)c(Nc3ccc(Br)cc3Cl)c(C(=O)NOCCO)cc21 [Selumetinib] (first compound max 1 µM, 7x7, partner max 3 µM): 0.951
- CC(=O)c1c(C)c2cnc(Nc3ccc(N4CCNCC4)cn3)nc2n(C2CCCC2)c1=O [Palbociclib] + Cc1c2c(nn1C)CSCc1cc(n(C)n1)CSc1cc(c3ccccc3c1)OCCCc1c(C(=O)O)n(C)c3c-2c(Cl)ccc13 [AZD5991] (first compound max 10 µM, 7x7, partner max 1 µM): 0.405
- CC1(C)CCC(CN2CCN(c3ccc(C(=O)NS(=O)(=O)c4ccc(NCC5CCOCC5)c([N+](=O)[O-])c4)c(Oc4cnc5[nH]ccc5c4)c3)CC2)=C(c2ccc(Cl)cc2)C1 [Venetoclax] + Cc1cc2ncnn2cc1Nc1ncc2c(n1)n(C1CCOCC1)c(=O)n2C [AZD7648] (first compound max 1 µM, 7x7, partner max 10 µM): 0.318
- NC1(C(=O)N[C@@H](CCO)c2ccc(Cl)cc2)CCN(c2ncnc3[nH]ccc23)CC1 [Capivasertib] + CC(=O)c1c(C)c2cnc(Nc3ccc(N4CCNCC4)cn3)nc2n(C2CCCC2)c1=O [Palbociclib] (first compound max 10 µM, 7x7, partner max 10 µM): 0.473
- CCN(CCO)CCCOc1ccc2c(Nc3cc(CC(=O)Nc4cccc(F)c4)[nH]n3)ncnc2c1 [AZD2811] + O=C(c1cc(Cc2n[nH]c(=O)c3ccccc23)ccc1F)N1CCN(C(=O)C2CC2)CC1 [Olaparib] (first compound max 1 µM, 7x7, partner max 10 µM): 0.331
- Cc1c2c(nn1C)CSCc1cc(n(C)n1)CSc1cc(c3ccccc3c1)OCCCc1c(C(=O)O)n(C)c3c-2c(Cl)ccc13 [AZD5991] + CC1(C)CCC(CN2CCN(c3ccc(C(=O)NS(=O)(=O)c4ccc(NCC5CCOCC5)c([N+](=O)[O-])c4)c(Oc4cnc5[nH]ccc5c4)c3)CC2)=C(c2ccc(Cl)cc2)C1 [Venetoclax] (first compound max 1 µM, 7x7, partner max 1 µM): 0.597

###

tested on: KALS-1 (Glioblastoma); assay: combination Emax (second highest fraction inhibited in the dose matrix, 72 h); higher = more inhibition; extreme values may be limits of the assay
Measurement Name: combination Emax

• N#Cc1cnc(Nc2cc(NC[C@H]3CNCCO3)c(C(F)(F)F)cn2)cn1 [SRA737] + CCc1c2c(nc3ccc(O)cc13)-c1cc3c(c(=O)n1C2)COC(=O)[C@]3(O)CC [SN-38] (first compound max 10 µM, 7x7, partner max 0.3 µM) = 0.928
• C=CCn1c(=O)c2cnc(Nc3ccc(N4CCN(C)CC4)cc3)nc2n1-c1cccc(C(C)(C)O)n1 [AZD1775] + Nc1ccn([C@@H]2O[C@H](CO)[C@@H](O)C2(F)F)c(=O)n1 [Gemcitabine] (first compound max 1 µM, partner max 0.3 µM) = 0.929
• CC1(C)CCC(CN2CCN(c3ccc(C(=O)NS(=O)(=O)c4ccc(NCC5CCOCC5)c([N+](=O)[O-])c4)c(Oc4cnc5[nH]ccc5c4)c3)CC2)=C(c2ccc(Cl)cc2)C1 [Venetoclax] + C=CCn1c(=O)c2cnc(Nc3ccc(N4CCN(C)CC4)cc3)nc2n1-c1cccc(C(C)(C)O)n1 [AZD1775] (first compound max 1 µM, partner max 1 µM) = 0.93
• COc1cccc(OCCCN)c1-c1cc(Nc2cnc(C#N)cn2)n[nH]1 [Prexasertib] + CN(C)CCCOc1ccc(-c2ccc3ncc4c(c3c2)n(C2CCOCC2)c(=O)n4C)cn1 [AZD0156] (first compound max 1 µM, 7x7, partner max 1 µM) = 0.839

###

Property: combination Emax; scope: individual molecules
tested on: IA-LM (Non-Small Cell Lung Carcinoma); experiment: combination Emax (second highest fraction inhibited in the dose matrix, 72 h); higher = more inhibition; extreme values may be limits of the assay
Measurement Name: combination Emax

• COc1nnc2ccc(N3CCC(c4ccc(OCCN5CCN(C)C(=O)[C@H]5C)cc4)CC3)nn12 [AZD5153] + C[C@@H]1COCCN1C2=NC(=NC(=C2)C3(CC3)[S@](=N)(=O)C)C4=C5C=CNC5=NC=C4 [AZD6738] (first compound max 1 µM, 7x7, partner max 10 µM) = 0.443
• COc1cc2c(cc1OCCCCCOc1cc3c(cc1OC)C(=O)N1C=C(C)C[C@H]1C=N3)N=C[C@@H]1CC(C)=CN1C2=O [SG3199] + O=C(c1cc(Cc2n[nH]c(=O)c3ccccc23)ccc1F)N1CCN(C(=O)C2CC2)CC1 [Olaparib] (first compound max 0.001 µM, 7x7, partner max 10 µM) = 0.139

###

Property: combination Emax; scope: individual compounds
tested on: MDA-MB-415 (Breast Carcinoma); experiment: combination Emax (second highest fraction inhibited in the dose matrix, 72 h); higher = more inhibition; extreme values may be limits of the assay
Measurement Name: combination Emax

* Cc1c2c(nn1C)CSCc1cc(n(C)n1)CSc1cc(c3ccccc3c1)OCCCc1c(C(=O)O)n(C)c3c-2c(Cl)ccc13 [AZD5991] + C=CCn1c(=O)c2cnc(Nc3ccc(N4CCN(C)CC4)cc3)nc2n1-c1cccc(C(C)(C)O)n1 [AZD1775] (first compound max 1 µM, partner max 1 µM) | 0.404
* COc1nnc2ccc(N3CCC(c4ccc(OCCN5CCN(C)C(=O)[C@H]5C)cc4)CC3)nn12 [AZD5153] + Cn1cnc2c(F)c(Nc3ccc(Br)cc3Cl)c(C(=O)NOCCO)cc21 [Selumetinib] (first compound max 1 µM, 7x7, partner max 10 µM) | 0.429
* Cc1cc2ncnn2cc1Nc1ncc2c(n1)n(C1CCOCC1)c(=O)n2C [AZD7648] + COc1cc([C@@H]2c3cc4c(cc3[C@@H](O[C@@H]3O[C@@H]5CO[C@@H](C)O[C@H]5[C@H](O)[C@H]3O)[C@H]3COC(=O)[C@H]23)OCO4)cc(OC)c1O [Etoposide] (first compound max 10 µM, 7x7, partner max 10 µM) | 0.483
* NC1(C(=O)N[C@@H](CCO)c2ccc(Cl)cc2)CCN(c2ncnc3[nH]ccc23)CC1 [Capivasertib] + CCN(CCO)CCCOc1ccc2c(Nc3cc(CC(=O)Nc4cccc(F)c4)[nH]n3)ncnc2c1 [AZD2811] (first compound max 10 µM, 7x7, partner max 1 µM) | 0.837

###

system: MOLT-13 (T-Lymphoblastic Leukemia); test: combination Emax (second highest fraction inhibited in the dose matrix, 72 h); higher = more inhibition; extreme values may be limits of the assay
Measurement Name: combination Emax

* CN(C)CCCOc1ccc(-c2ccc3ncc4c(c3c2)n(C2CCOCC2)c(=O)n4C)cn1 [AZD0156] + CCN(CCO)CCCOc1ccc2c(Nc3cc(CC(=O)Nc4cccc(F)c4)[nH]n3)ncnc2c1 [AZD2811] (first compound max 1 µM, 7x7, partner max 1 µM) | 0.99
* Cc1c2c(nn1C)CSCc1cc(n(C)n1)CSc1cc(c3ccccc3c1)OCCCc1c(C(=O)O)n(C)c3c-2c(Cl)ccc13 [AZD5991] + Cc1cc2ncnn2cc1Nc1ncc2c(n1)n(C1CCOCC1)c(=O)n2C [AZD7648] (first compound max 1 µM, 7x7, partner max 10 µM) | 1
* NC1(C(=O)N[C@@H](CCO)c2ccc(Cl)cc2)CCN(c2ncnc3[nH]ccc23)CC1 [Capivasertib] + CC(C)n1c(=O)n(C)c2cnc3cc(F)c(-c4ccc(OCCCN5CCCCC5)nc4)cc3c21 [AZD1390] (first compound max 10 µM, 7x7, partner max 0.3 µM) | 0.132
* CC1(C)CCC(CN2CCN(c3ccc(C(=O)NS(=O)(=O)c4ccc(NCC5CCOCC5)c([N+](=O)[O-])c4)c(Oc4cnc5[nH]ccc5c4)c3)CC2)=C(c2ccc(Cl)cc2)C1 [Venetoclax] + CN(C)CCCOc1ccc(-c2ccc3ncc4c(c3c2)n(C2CCOCC2)c(=O)n4C)cn1 [AZD0156] (first compound max 1 µM, 7x7, partner max 1 µM) | 0.718

###

test system: ZR-75-30 (Breast Carcinoma); assay: combination Emax (second highest fraction inhibited in the dose matrix, 72 h); higher = more inhibition; extreme values may be limits of the assay
Please enter 1 where combination Emax is greater than or equal to 0.3, and 0 where it is lower.

- N#Cc1cnc(Nc2cc(NC[C@H]3CNCCO3)c(C(F)(F)F)cn2)cn1 [SRA737] + C=CCn1c(=O)c2cnc(Nc3ccc(N4CCN(C)CC4)cc3)nc2n1-c1cccc(C(C)(C)O)n1 [AZD1775] (first compound max 10 µM, partner max 1 µM): 0
- C[C@@H](Nc1cc(F)cc(F)c1)c1cc(C(=O)N(C)C)cc2c(=O)cc(N3CCOCC3)oc12 [AZD8186] + CC(=O)c1c(C)c2cnc(Nc3ccc(N4CCNCC4)cn3)nc2n(C2CCCC2)c1=O [Palbociclib] (first compound max 10 µM, 7x7, partner max 10 µM): 1
- COc1nnc2ccc(N3CCC(c4ccc(OCCN5CCN(C)C(=O)[C@H]5C)cc4)CC3)nn12 [AZD5153] + C=CCn1c(=O)c2cnc(Nc3ccc(N4CCN(C)CC4)cc3)nc2n1-c1cccc(C(C)(C)O)n1 [AZD1775] (first compound max 1 µM, partner max 1 µM): 1
- CN(CCO)CC[C@H](CSc1ccccc1)Nc1ccc(S(=O)(=O)NC(=O)c2ccc(N3CCC([C@@H](O)c4ccccc4-c4ccc(Cl)cc4)CC3)cc2)cc1S(=O)(=O)C(F)(F)F [AZD4320] + C[C@@H]1COCCN1C2=NC(=NC(=C2)C3(CC3)[S@](=N)(=O)C)C4=C5C=CNC5=NC=C4 [AZD6738] (first compound max 1 µM, 7x7, partner max 10 µM): 0
- NC1(C(=O)N[C@@H](CCO)c2ccc(Cl)cc2)CCN(c2ncnc3[nH]ccc23)CC1 [Capivasertib] + CC(=O)c1c(C)c2cnc(Nc3ccc(N4CCNCC4)cn3)nc2n(C2CCCC2)c1=O [Palbociclib] (first compound max 10 µM, 7x7, partner max 10 µM): 1
- CC1(C)CCC(CN2CCN(c3ccc(C(=O)NS(=O)(=O)c4ccc(NCC5CCOCC5)c([N+](=O)[O-])c4)c(Oc4cnc5[nH]ccc5c4)c3)CC2)=C(c2ccc(Cl)cc2)C1 [Venetoclax] + Cn1cnc2c(F)c(Nc3ccc(Br)cc3Cl)c(C(=O)NOCCO)cc21 [Selumetinib] (first compound max 1 µM, 7x7, partner max 3 µM): 0
- Cc1c2c(nn1C)CSCc1cc(n(C)n1)CSc1cc(c3ccccc3c1)OCCCc1c(C(=O)O)n(C)c3c-2c(Cl)ccc13 [AZD5991] + Cn1cnc2c(F)c(Nc3ccc(Br)cc3Cl)c(C(=O)NOCCO)cc21 [Selumetinib] (first compound max 1 µM, 7x7, partner max 3 µM): 0
- C[C@@H]1COCCN1c1cc(C2([S@](C)(=N)=O)CC2)nc(-c2ccnc3[nH]ccc23)n1 [AZD6738] + O=C(c1cc(Cc2n[nH]c(=O)c3ccccc23)ccc1F)N1CCN(C(=O)C2CC2)CC1 [Olaparib] (first compound max 10 µM, 7x7, partner max 10 µM): 0
- CN(C)CCCOc1ccc(-c2ccc3ncc4c(c3c2)n(C2CCOCC2)c(=O)n4C)cn1 [AZD0156] + CCN(CCO)CCCOc1ccc2c(Nc3cc(CC(=O)Nc4cccc(F)c4)[nH]n3)ncnc2c1 [AZD2811] (first compound max 1 µM, 7x7, partner max 1 µM): 0
- CN(C)CCCOc1ccc(-c2ccc3ncc4c(c3c2)n(C2CCOCC2)c(=O)n4C)cn1 [AZD0156] + C[C@@H]1COCCN1C2=NC(=NC(=C2)C3(CC3)[S@](=N)(=O)C)C4=C5C=CNC5=NC=C4 [AZD6738] (first compound max 1 µM, 7x7, partner max 10 µM): 0
- CCN(CCO)CCCOc1ccc2c(Nc3cc(CC(=O)Nc4cccc(F)c4)[nH]n3)ncnc2c1 [AZD2811] + C[C@@H]1COCCN1C2=NC(=NC(=C2)C3(CC3)[S@](=N)(=O)C)C4=C5C=CNC5=NC=C4 [AZD6738] (first compound max 1 µM, 7x7, partner max 10 µM): 0
- Cc1cc2ncnn2cc1Nc1ncc2c(n1)n(C1CCOCC1)c(=O)n2C [AZD7648] + C[C@@H]1COCCN1C2=NC(=NC(=C2)C3(CC3)[S@](=N)(=O)C)C4=C5C=CNC5=NC=C4 [AZD6738] (first compound max 10 µM, 7x7, partner max 10 µM): 0

The reported measurements were obtained from the supplement of paper PMC11061612.
